System: MOLT-4
Test: Antiproliferative activity against human MOLT4 cells after 48 hrs by Coulter counting analysis
Format: functional, cell-based
Settings: MOLT-4, 48 h
Assay readout: IC50 (nM)

// worked examples, IC50 included
C=C(Br)C(=O)Nc1ccc(C(=O)/C=C/c2ccc(N(C)C)cc2)cc1 1300
C=C(Br)C(=O)Nc1ccc(C(=O)/C=C/c2ccccc2OC)cc1 240
COc1ccc(C(=O)/C=C/c2ccc(N)cc2)cc1 19000
C=C(Br)C(=O)Nc1ccc(C(=O)/C=C/c2ccc(OC)cc2OC)cc1 1500
C=C(Br)C(=O)Nc1ccc(/C=C/C(=O)c2cccs2)cc1 550

I = CN(C)c1ccc(/C=C/C(=O)c2ccc(N)cc2)cc1
II = C=C(Br)C(=O)Nc1ccc(/C=C/C(=O)c2ccc(Cl)cc2)cc1
Lab notebook, comparison: I versus II , higher IC50 goes to which? I would appreciate it if you answered with the label of your choice. I

P = COc1ccc(/C=C/C(=O)c2ccc(N)cc2)c(OC)c1OC
Q = C=C(Br)C(=O)Nc1ccc(C(=O)/C=C/c2cc(OC)c(OC)c(OC)c2)cc1
R = C=C(Br)C(=O)Nc1ccc(/C=C/C(=O)c2cccc(OC)c2)cc1
List by increasing IC50. Use the labels to give the ranking in the order requested. Q, R, P
(Q: 280 nM, R: 850 nM, P: 10000 nM)

P = Nc1ccc(/C=C/C(=O)c2ccccc2)cc1
Q = C=C(Br)C(=O)Nc1ccc(/C=C/C(=O)c2ccc(Br)cc2)cc1
Lab notebook, comparison: P versus Q , higher IC50 goes to which? I would appreciate it if you answered with the label of your choice. P
